A compilation of IC50 values for human HIF-PHD2 (Homo sapiens) from the published literature.
Give the number; nM is assumed, so skip it.

Known IC50 results, listed for orientation:
{"columns": ["COMPOUND", "U", "IC50"],
 "data": [
  ["CCC(c1ccc(C)cc1)n1ncc2nc(-n3cc(C(=O)O)cn3)nc(O)c21 (centres unmarked)", "nM", 60],
  ["C[C@@H](C1CCCCC1)n1nc(F)c2nc(-n3cc(C(=O)O)cn3)nc(O)c21", "nM", 25],
  ["Cc1ccc(O[C@H]2CC[C@H](Cn3ncc4nc(-n5cc(C(=O)O)cn5)nc(O)c43)CC2)cc1", "nM", 13],
  ["O=C(O)c1cnn(-c2nc(O)c3c(cnn3CC3(c4ccccc4)CCCCC3)n2)c1", "nM", 55],
  ["O=C(O)c1cnn(-c2nc(O)c3c(cnn3Cc3ccc(Cl)c(F)c3)n2)c1", "nM", 23],
  ["C[C@H](NC(=O)c1c(O)c2sc3ccccc3c2n(C)c1=O)C(=O)O", "nM", 109],
  ["Cn1c(=O)c(C(=O)NCC(=O)O)c(O)c2cnc(-c3ccc(F)cc3)nc21", "nM", 2.3],
  ["O=C(O)c1cnn(-c2nc(O)c3c(cnn3C3CCN(c4ccc(C(F)(F)F)cc4)CC3)n2)c1", "nM", 10],
  ["O=C(O)c1cnn(-c2nc(O)c3c(cnn3Cc3cccc(-c4ccc(OC(F)(F)F)cc4)c3)n2)c1", "nM", 15],
  ["O=C(O)c1cnn(-c2nc(O)c3c(cnn3C3CCC(F)(F)CC3)n2)c1", "nM", 42]
]}

Ask: Reported IC50 for human HIF-PHD2 (Homo sapiens), given O=C(O)CNC(=O)c1c(O)c2c(n(Cc3ccc(F)c(F)c3)c1=O)COCC2 ?
Reply: 30.8

Ask: Reported IC50 for human HIF-PHD2 (Homo sapiens), given O=C(O)CNC(=O)C1=C(O)c2c(cccc2-c2ccccc2)C1=O ?
Reply: 2.8

Ask: Reported IC50 for human HIF-PHD2 (Homo sapiens), given O=C(O)CNC(=O)c1c(O)c2c(n(Cc3cnc4ccccc4c3)c1=O)COC2 ?
Reply: 12.6
